Origin of the recorded values: the nanobody polyreactivity screen of Harvey et al. (2022)

Protocol Details: yeast display, Sf9 membrane polyspecificity reagent, FACS + sequencing; frameworks hold sequencing errors
Measurement Type: polyreactivity (PSR sort gate)

Worked cases, answers included:
>  <Residues>
QVQLVESGGGLVQAGGSLRLSCAASGFIFSGNAMGWYRQAPGKERELVAAISWSGTSTFYADSVKGRFTISRDNAKNTVYLQMNSLKPEDTAVYYCAAETYYSYWYRPHYDYWGQGTQVTVSS

>  <Result>
low polyreactivity

$$$$
>  <Residues>
QVQLVESGGGLVQAGGSLRLSCAASGFTLWYNTMGWYRQAPGKERELVASITIGDSTSYADSVKGRFTISRDNAKNTVYLQMNSLKPEDTAVYYCNAEIALNSYDTYHRAADGYNYWGQGTQVTVSS

>  <Result>
low polyreactivity

$$$$
>  <Residues>
QVQLVESGGGLVQAGGSLRLSCAASGLIFDVYAMGWYRQAPGKERELVAVISRGGSTNYADSVKGRFTISRDNANNTVYLQMNSLKPEDTAVYYCAAGLVVSYPQNNYSVSFYARGYWGQGTQVTVSS

>  <Result>
high polyreactivity

$$$$
>  <Residues>
QVQLVESGGGLVQAGGSLRLSCAASGLTFVDYAMGWYRQAPGKERELVASIDYSGSSTYYADSVKGRFTISRDNAKNTVYLQMNSLKPEDTAVYYCAATDSGEYWGQGTQVTVSS

>  <Result>
low polyreactivity

$$$$
>  <Residues>
QVQLVESGGGLVQAGGSLRLSCAASGLIFARNALGWYRQAPGKERELVAAISWRSGRTYYADSVKGRFTISRDNAKNTVYLQMNSLKPEDTAVYYCAATSRTSWYGYWGQGTQVTVSS

>  <Result>
high polyreactivity

$$$$
>  <Residues>
QVQLVESGGGLVQAGGSLRLSCAASGRIFDYYAMGWYRQEAGKERELVARITSGGTTNYADSVKGRFTISRDNAKNTVYLQMNSLKPEDTAVYYCNAQDYSDPLQMDYWGQCTQVTVSS

>  <Result>
low polyreactivity

$$$$
>  <Residues>
QVQLVESGGGLVQAGGSLRLTCAASGSIFSLNVMGRYRQAPGKERELVATIRGRGTSTYYADSVKGRFTISRYNAKINVYLHMNSLKPEDTAVYYWAARGHGAYGYWGQGTQVTVSS

>  <Result>
low polyreactivity

$$$$
>  <Residues>
QVQLVESRVGLVKAGGSLRLSCAASGITLYWYAMGWYRQAPGKESELVAAISRRGGTTYYSDSVKGRFTISRDNAKNTVYLQMNILKPEDTAVYYCAKAPDTQTSWSRQEGNYWGQGSQVTVSS

>  <Result>
low polyreactivity

$$$$
>  <Residues>
QVQLVESGGGLVQAGGSLRLSCAASGSIFREYAMGWYRQAPGKERELVAAITKSGGRTYYADSVKGRFTISRDNAKNTVYLQMNSLKPEDTAVYYCAADSRNSRQHTSYNRLNYWGQGTQVTVSS

>  <Result>
high polyreactivity

$$$$
>  <Residues>
QVQLVESGGGLVQAGGSLRLSCAASGIIFSLYVMGWYRQAPGKERELVAAIRSGGSTYYADSVKGRFTISRDNAKNTVYLQMNSLKPEDTAGDYCAARVRSGTGVGFDYWGQGTQVTVSS

>  <Result>
high polyreactivity

$$$$

get_value(item= QVQLVESGGGLVQAGGSLRLSCAASGRTFFGRNVMGWYRPAPGNDRELVAAITSSGASTYYADSVKGRFTISRDNAKNTVYLQMNSLKPEDTAVYYCAAVRYVWQGYDYWGQGTQVTVSS , readout=polyreactivity (PSR sort gate)) returns high polyreactivity

---

Protocol Details: yeast display, Sf9 membrane polyspecificity reagent, FACS + sequencing; frameworks hold sequencing errors
Measurement Type: polyreactivity (PSR sort gate)

>  <Residues>
QVQLVESGGGLVQAGCSLRLSCAASGSTFYYNAMGWYRQAPGKERELVAAITFTGGSTYADSVKGRFTISRDNAKNTVYLQLNSLKPEDTAVYYCAATIEGHDYLGTGYDYWGHGTQVTVSS

>  <Measurement Type>
polyreactivity (PSR sort gate)

>  <Result>
low polyreactivity

$$$$
>  <Residues>
QVQLVESGGGLVQAGGSLRLSCASSGSIFEANDMGWYRQAPGKEREFVADIDANSGSTYYADSVKGRFTISRDNAKNTVNLQMNSLKPEDTADYYCNAQVYLHTAYDYWGQVTQVTVSS

>  <Measurement Type>
polyreactivity (PSR sort gate)

>  <Result>
low polyreactivity

$$$$
>  <Residues>
QVQLVESGGGLVQAGGSLRLSCAASGSTNGRNAIGWSRQAPRKERELVAAISSGGSTSYADSVKVRFTISRDNAKYTDYLQMNSLKPVDTAVYYCAAQSVGSQYDYWGQGTQVTVSS

>  <Measurement Type>
polyreactivity (PSR sort gate)

>  <Result>
low polyreactivity

$$$$
>  <Residues>
QVQLGESGGGLVQAGGSLRLSCAASGSTFVWYAMGWYRQAPGKERELVANISGSGGSTYYADSVKGRFTISRDNAKNTVYLQMNSLKPEDNAVYYCAAQRQWRTQYDDDYWGQGTQVTVSS

>  <Measurement Type>
polyreactivity (PSR sort gate)

>  <Result>
low polyreactivity

$$$$

---

Protocol Details: yeast display, Sf9 membrane polyspecificity reagent, FACS + sequencing; frameworks hold sequencing errors
Measurement Type: polyreactivity (PSR sort gate)

Worked cases, answers included:
>  <Residues>
QVQLVESGGGLVQAGGSLRLSCAASGSIFSFNAMGWYRQAPGKERELVAVITRNGGSTYYADSVKGRFTISRDNAKNTVYLQKNSLKPEDTAVYYCAKRLYRHIMGYWGQGTQVTVSS

>  <polyreactivity (PSR sort gate)>
high polyreactivity

$$$$
>  <Residues>
QVQLVESGGGLVQAGGSLRLSCAASGIICPENAMGWYRQAPGKERELVAAISKSGGRTYYADSVKGRFTISRDNAKNTVYLQMNSLKPEDTAVYYCAKVPYAYSRDRSAEDSWGQATQVTVSS

>  <polyreactivity (PSR sort gate)>
high polyreactivity

$$$$
>  <Residues>
QVQLVESGGGLVQAGGSLRLSCAASGSTFIDYGMGWYRQAPGKERELVAAIDLDSGDTYYADSVKGRFTISRDNAKNTVYLQMNSLKPEDTAVYYCAAQYWYRYNYWGQGTQVTVSS

>  <polyreactivity (PSR sort gate)>
low polyreactivity

$$$$
>  <Residues>
QVQLVESGGGLVQAGGSLRLSCAASGFIFNSYGMGWYRQAPGKERELVAAITKSGGSTYYADSVKGRFTISRDNAKNTVYLQMNSLKPEDTAVYYCAARAYRYSVYRGDYWGQGTQVTVSS

>  <polyreactivity (PSR sort gate)>
high polyreactivity

$$$$

get_value(item= QVQLVESVGGLVQAGGSLRLSCAASGFIFWPYAMGWSRQAPGKERELVAGITSDGSTHYADSVKGRFTISRDNAKNTVYLQINSLKPQDTAVYYCAKGIRYGYRVRVYYWGQGTQVTVSS , readout=polyreactivity (PSR sort gate)) returns high polyreactivity

get_value(item= QVQLQESGGGQVQAGGSLRLSCEASGTIFLYAFMGWYRQAPGKERELVAAIDVGTTTNYADSVKGRFTISRDNAKNTVYLQMNSLKPEDTAVYYCAANLGYLDDLGYWGQGTQVTVSS , readout=polyreactivity (PSR sort gate)) returns low polyreactivity

get_value(item= QVQLVESGGGLVQAGGSLRLSCAASGRTFLYNAMGWYIQAPGKERELVAAISWNGGRTYYADSVKGRFTISRDNAKNTVYLQMNSLKPEDTAVYYCAKVDQLYNSRYDYWGQGTQVTVSS , readout=polyreactivity (PSR sort gate)) returns high polyreactivity

get_value(item= QVQLVESGGGLVQAGGSLRLSCAASGRIFKNYAKGWYRQAPGKERELVAAISWSGGRTYYSDSVKGRFTISRDNAKNTVYLQMNSLKPEYTAVYYCAARFRRTRVTYYYWGQGTQVTVSS , readout=polyreactivity (PSR sort gate)) returns high polyreactivity

get_value(item= QVQLVESGGGLVQAGGSLRLSCAASGSIFDYNGMGWYRQAPGKERELVATITLSTARTYYADSVKGRFTISRDNAKNTVYLQMNSLKPEDTAVYYCAATRLTPYIYGGKYNYWGQGTQVTVSS , readout=polyreactivity (PSR sort gate)) returns high polyreactivity

get_value(item= QVQLVESGGGLVQAGGSLRLSCAASGSTLSGNAMGWYRQAPGKERELVAAIRWSGDITYYADSVKGRFTISRDNAKNTVYLQMNSLKPEDTAVYYCAATLGNRWFHYNYWGQGTQVTVSS , readout=polyreactivity (PSR sort gate)) returns low polyreactivity

get_value(item= QVQLVESGGGLVQARGSLRLSCASSGRTFYTYAMGWYRQAPGKERELVAAIRRVGSTNYADSVKGRFTISRDNAKNTGYLQMNSLKPEDTAVYYCAVRLVWPWQGYDYWGQGTQVTVSS , readout=polyreactivity (PSR sort gate)) returns low polyreactivity

---

Protocol Details: yeast display, Sf9 membrane polyspecificity reagent, FACS + sequencing; frameworks hold sequencing errors
Measurement Type: polyreactivity (PSR sort gate)

Worked cases, answers included:
>  <Residues>
QVQLVESGGGLVQAGRSLRLSCGASGFTFGLYAMGWYRQATGKERELVAAITSSGRRTYYADSVKGRYTISRDKAKNTVSLEMNCLKPEDTAVYYFAKQAYDQSPYNYWGQGTQVTVSS

>  <Result>
high polyreactivity

$$$$
>  <Residues>
EEELVDSGGGLVQAGGSLRLSCSAYGSTFRDYAMGWYRQAPGKERELVAAITSGGTTDYADSVKGRFPISRDNAKNTVYLQMNSLKPEDTAVYYCNKDGVVAGYQYDYWGQGTQVTVSS

>  <Result>
low polyreactivity

$$$$
>  <Residues>
QVQLVETGGGLFQAGGSLRLSCAPSGFTFRYNAMGWYRQAPGKERELVAAISWSGGSTYYADSVKGRFTISRDNAKNTVYLQMNSLKPEDTAVYYSNAEYDDYAGEFDYWGQGTQVTGSS

>  <Result>
low polyreactivity

$$$$
>  <Residues>
QVQLVESGGGLVQAGGSLRLSCAASGSIFYDYAMGWYRQAPGKEREFVAAITSSGGSTYYADSVKGRFTISRDNAKNTVYLQMNSLKPEDTAVYYCAAEDSDAYFIYGYWGQGTQVTVSS

>  <Result>
low polyreactivity

$$$$

get_value(item= QVQLVESGGGLVQAGGSLRLSCAASGITFNGYVMGWYRQAPGKERELVAAITSGARTYYADSVKGRFTISRDNAKNTVYLQMNSLKPEDTAVYYCAASIWLYRYYYWGQVTQVTVSS , readout=polyreactivity (PSR sort gate)) returns high polyreactivity

get_value(item= QVQLVESGGGLVQAGGRLRISCAASGTIFAYALGWYRPAPGKERELVAGISRRGGSTYYADSVKGRFTISRDNAKKTVYLQMKSLKPEDTAVYYCAADYYTLYPVYIKRYGYWGQGTQVTVSA , readout=polyreactivity (PSR sort gate)) returns high polyreactivity

get_value(item= QVQLVESGGGLVQAGGSLRLSCAASGSTSGFYAMGWYRQAPGKERELVAAIDVSGGSTYYADSVKGRFTISRDNAKNTVYLQIHSLKPEDTAVYYCAAYRRNVWSARYGYWGQGTQVTVSS , readout=polyreactivity (PSR sort gate)) returns high polyreactivity

get_value(item= LVQLVESGGGLVQAGGSLRLSCAASGRIFVGYAMGWFRQAPGKERELVAAISRRAGRTYYADSVKGRFTLSRDNAKNTVYLQMNSLKPEDTPVYYCIAPRYYPKAGFDYWGQGTQVTVSS , readout=polyreactivity (PSR sort gate)) returns high polyreactivity

get_value(item= QVQLVESGGGLVQAGGSLRLSCAASGITFGGYALGWYRQAPGKEREFVAGISSSGRSTYYADSVKGRFTISRDNAKNTVYLQMYSLKPEDTAVYYCAVYRVRKVYVLRGPFYYWGQGTQVTVSS , readout=polyreactivity (PSR sort gate)) returns high polyreactivity

get_value(item= QVQLVESGGGLVQAGGSLRLSCAASGYTFVVYAMGWYRQAPGKERELVAGITRGSSTYYADSVKGRFTISRDNAKNTVYLQMNSLKPEDTAVYYCARGYTWFYAVWPEYDYWGQGTQVTVSS , readout=polyreactivity (PSR sort gate)) returns high polyreactivity

get_value(item= QVQLVESGGGLVQAGGSLRLSCAASGRTFSTNAMGLYRQAPGKERELVAAISASGGSTYYADSVKGRFTISRDNAKTTVYLQMNSLKPEDTAVYYCAAYPGQWRTGYDYWGQGTQVTVSS , readout=polyreactivity (PSR sort gate)) returns high polyreactivity

get_value(item= QVQLVESGGGLVQAGGSLRLSCAASGSIFVRNAMGWYRQAPGKERELVAAITATGGRTYYADSVKGRFTISRDNAKNTVYLQMNSLKPEDTAVYYCAAYYPRSGYDYWGQGTQVTVSS , readout=polyreactivity (PSR sort gate)) returns high polyreactivity

get_value(item= QDQLGDSGGGLVQAGGSLRLSCAASGLTFYRYAMGWYRQAPGKERELVAAIRWNSGSTYYADSVKGRFTISRVNAKNTVYLQMNSLKPEDTAVYYCAATAIYPSAWRMAYWGQGTQVTVSS , readout=polyreactivity (PSR sort gate)) returns high polyreactivity

get_value(item= QVQLVESGGGLVQAGGSLRLSCAASGRIFVINTMGWYRQAPGKERELVAAISRGGSTNYADSVKGRFTISRDNAKNTVYLQMNSLKPEDTAVYYCAATGYILFAGGGYDYWGQGTQVTVSS , readout=polyreactivity (PSR sort gate)) returns low polyreactivity
